Please respond with reported growth for every item in the list.
Tested on: SK-OV-3 ovarian
Assay Details: NCI-60 one-dose screen, 48 h (100 = growth as untreated, 0 = no growth, -100 = all killed)
Run Parameters: 10 µM unless noted
This is part of a sample that, as a whole, favours compounds with a hit. Of some 83,000 tested, about 20% had one in any assay.
# number only, unit % dropped from output

Data request, read-out growth, for CCN1C(=O)N(CC)C2C1NN=c1s/c(=C3\C(=O)Nc4ccccc43)c(=O)n12 (stereo not drawn)
18.4

Consider next the compound O=S(=O)(NCCCNc1nccc(-c2c(-c3cccc(O)c3)nc3occn23)n1)c1ccc(F)cc1 in the same way.
71.1

Consider next the compound C=C1C(=O)O[C@H]2[C@H]1CC/C(CNC(=O)/C=C/c1ccc(Br)cc1)=C\CC[C@@]1(C)O[C@@H]21 in the same way.
46.6

Consider next the compound C=CCn1c(SCC(=O)Nc2ccc(C(=O)/C=C/c3cc(OC)c(OC)c(OC)c3)cc2)nnc1-c1cc(-c2ccc(S(C)(=O)=O)cc2)nc2ccccc12 in the same way.
127

Consider next the compound Cc1cc2nc(-c3ccccc3)c(-c3ccccc3)nc2cc1C in the same way.
108

Consider next the compound O=C(Nc1ccc2ncnc(Nc3ccc(Oc4cccc(F)c4)c(Cl)c3)c2c1)c1ccc(CN2CCOCC2)cc1 in the same way.
18.5

Consider next the compound CCCCCN1C=C/C(=C\C(=O)N(C)c2ccc(Br)cc2)c2ccccc21 in the same way.
96.8

Consider next the compound CC1=NNC(=O)C1CCC(=O)N/N=C(\C)c1ccc2ccccc2c1 (stereo not drawn) in the same way.
126

Consider next the compound CC(=O)OCC(=O)[C@@]1(O)CC[C@H]2[C@@H]3CC(=C(Br)Br)C4=CC(=O)CC[C@]4(C)[C@H]3C(=O)C[C@@]21C in the same way.
72.9

Consider next the compound O=C(CNCCO)Nc1ccc2ncnc(Nc3ccc(OCc4cccc(F)c4)c(Cl)c3)c2c1 in the same way.
16.4

Consider next the compound O=C(N/N=C/c1ccc(O)c(O)c1)c1sc2ccccc2c1Cl in the same way.
75.7

Consider next the compound CC(=O)O[C@H]1CC[C@@]2(C)[C@@H](CC[C@@H]3[C@@H]2CC[C@@]2(C)[C@H]3CC[C@]2(O)C(C)=O)C1 in the same way.
103

Consider next the compound C=C(C)[C@@H]1CC[C@]2(C(=O)O)CC[C@]3(C)[C@H](CC[C@@H]4[C@@]5(C)C[C@@H](CC#Cc6ccc(Br)cc6)C(=O)C(C)(C)[C@@H]5CC[C@]43C)[C@@H]12 in the same way.
50.5

Consider next the compound COc1ccc(-c2c[nH]c(C(=O)O)c2-c2cc(OC)c3c(c2OC)OCO3)cc1 in the same way.
119

Consider next the compound Cc1n[nH]c(C)c1-c1c(C)n[nH]c1C in the same way.
46.8

Consider next the compound C[C@@H]1CN(Cc2ccc(/C=C/c3n[nH]c4ccc5nc(-c6cn[nH]c6C(F)(F)F)c6c(c5c34)CCCC6)cc2)C[C@H](C)O1 in the same way.
22.5

Consider next the compound COc1ccc(-c2cnnc3c(-c4cccc(C(F)(F)F)c4)cnn23)cc1 in the same way.
15.1

Consider next the compound Cn1c(COC(=O)NCCc2ccccn2)nc2c(N3CCOCC3)nc(Cl)nc21 in the same way.
90.3
